src = patent US12570655B2

target: AKT1 E17K (Homo sapiens, UniProt P31749, E17K); assay: Live cell AKT1 E17K target engagement by NanoBRET competitive probe displacement; details: HEK293 cells transfected with kinase-NanoLuciferase fusion, 2 h at 37° C.
Sequence (P31749 whole entry E17K, the tested form may be a part): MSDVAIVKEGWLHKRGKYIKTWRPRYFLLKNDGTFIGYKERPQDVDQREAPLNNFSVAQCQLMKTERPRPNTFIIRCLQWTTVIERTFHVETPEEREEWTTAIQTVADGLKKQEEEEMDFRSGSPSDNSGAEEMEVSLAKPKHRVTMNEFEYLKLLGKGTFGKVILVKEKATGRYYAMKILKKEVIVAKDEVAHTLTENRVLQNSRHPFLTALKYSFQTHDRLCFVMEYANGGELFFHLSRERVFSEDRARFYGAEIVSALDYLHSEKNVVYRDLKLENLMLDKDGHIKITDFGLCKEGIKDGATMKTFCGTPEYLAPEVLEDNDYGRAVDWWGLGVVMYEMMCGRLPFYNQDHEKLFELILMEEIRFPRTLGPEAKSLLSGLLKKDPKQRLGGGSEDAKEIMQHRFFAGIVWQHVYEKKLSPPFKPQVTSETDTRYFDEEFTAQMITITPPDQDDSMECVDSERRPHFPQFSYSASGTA
Measured endpoint: IC50 (nM)
Quick note: give the figure in nM, leave out the unit.

Example compounds with recorded IC50:
{"Compound": "C=C(F)C(=O)Nc1cn(C)nc1C(=O)N[C@H]1CCc2cc(-n3c(-c4cccnc4N)nc4ccc(-n5cccn5)nc43)ccc21", "IC50 (nM)": 179}
{"Compound": "C=C(F)C(=O)N1CC2(CC(N[C@H]3CCc4cc(-n5c(-c6cccnc6N)nc6ccc(-n7cccn7)nc65)ccc43)C2)C1", "IC50 (nM)": 192}
{"Compound": "C=CC(=O)N1CCC(N[C@@H]2c3ccc(-n4c(-c5cccnc5N)nc5ccc(-n6ccc(OC)n6)nc54)cc3CC2F)CC1 (single isomer, unassigned) [Example 286]", "IC50 (nM)": 10.7}

GET /values?readout=IC50&item= C=CC(=O)N1CCC(N[C@H]2CCc3cc(-n4c(-c5cccnc5N)nc5ccc(-n6ccc(OC7CC7)n6)nc54)ccc32)CC1
7.44

GET /values?readout=IC50&item= C=CC(=O)N1CCC(N[C@H]2CCc3cc(-n4c(-c5cccnc5N)nc5ccc(-c6nnc(C7CC7)s6)nc54)ccc32)CC1
11.8

GET /values?readout=IC50&item= C#CC1CC(N[C@H]2CCc3cc(-n4c(-c5cccnc5N)nc5ccc(-n6cccn6)nc54)ccc32)CCN1C(=O)C=C (single isomer, unassigned) [Example 112]
8.06

GET /values?readout=IC50&item= C=CC(=O)N1CCC(c2cn([C@H]3CCc4cc(-n5c(-c6cccnc6N)nc6ccc(-n7cccn7)nc65)ccc43)nn2)CC1
53.7

GET /values?readout=IC50&item= C=CC(=O)N1CCC(N[C@@H]2c3ccc(-n4c(-c5cccnc5N)nc5ccc(-n6cccn6)nc54)cc3CC2(F)F)CC1
582

GET /values?readout=IC50&item= C=CC(=O)Nc1ccccc1CN[C@H]1CCc2cc(-n3c(-c4cccnc4N)nc4ccc(-n5cccn5)nc43)ccc21
94.9

GET /values?readout=IC50&item= C=CC(=O)N1CCC(N[C@H]2CCc3cc(-n4c(-c5cccnc5N)nc5ccc(C6CC(F)(F)C6)nc54)ccc32)CC1
39

GET /values?readout=IC50&item= C=CC(=O)N1CCC(N[C@H]2CCc3cc(-n4c(-c5cccnc5N)nc5ccc(-c6ccn(C(F)F)n6)nc54)ccc32)CC1
18.1

---

target: UniProtKB P31749; test: Live cell AKT1 WT target engagement by NanoBRET competitive probe displacement; details: HEK293 cells transfected with kinase-NanoLuciferase fusion, 2 h at 37° C.
Reported pIC50 by item:
Reminder that pIC50 means the negative base-10 logarithm of the concentration expressed in mol/L.

Example molecules with recorded pIC50:
{"Molecule": "C=CC(=O)N1CCC(N[C@H]2CCc3cc(-n4c(-c5cccnc5N)nc5ccc(-n6cccn6)nc54)ccc3C2)CC1 [Example 296]", "pIC50": 7.03}
{"Molecule": "C=C(F)C(=O)N1CCC(N[C@H]2CCc3cc(-n4c(-c5cccnc5N)nc5ccc(-n6cccn6)nc54)ccc32)CC1 [Example 46]", "pIC50": 6.14}
{"Molecule": "C=CC(=O)N1CCC(N[C@@H]2c3ccc(-n4c(-c5cccnc5N)nc5ccc(-n6ccc(C7CC7)n6)nc54)cc3CC2F)CC1 (single isomer, unassigned) [Example 297]", "pIC50": 6.23}
{"Molecule": "C=CC(=O)N1CCC(N[C@@H]2CCc3cc(-n4c(-c5cccnc5N)nc5ccc(-n6cccn6)nc54)ccc32)CC1 [Example 149]", "pIC50": 7.63}
{"Molecule": "C=CC(=O)N1[C@H](C)CC(N[C@H]2CCc3cc(-n4c(-c5cccnc5N)nc5ccc(-n6cccn6)nc54)ccc32)C[C@@H]1C (single isomer, unassigned) [Example 87]", "pIC50": 7.59}

Hi! What's the reported pIC50 for C=CC(=O)N1CCC(N[C@H]2CCc3cc(-n4c(-c5cccnc5F)nc5ccc(-n6cccn6)nc54)ccc32)CC1 [Example 251] on UniProtKB P31749?
5.67

Hi! What's the reported pIC50 for C=CC(=O)Nc1cc(O)ccc1C(=O)N[C@H]1CCc2cc(-n3c(-c4cccnc4N)nc4ccc(-n5cccn5)nc43)ccc21 [Example 70] on UniProtKB P31749?
7.08

Hi! What's the reported pIC50 for NC(=O)/C=C/c1ncccc1C(=O)N[C@H]1CCc2cc(-n3c(-c4cccnc4N)nc4ccc(-n5cccn5)nc43)ccc21 [Example 45] on UniProtKB P31749?
7.37

Hi! What's the reported pIC50 for C=CC(=O)N1CCC(N[C@H]2CCc3cc(-n4c(-c5cccnc5N)nc5cc(C6CC6)cnc54)ccc32)CC1 [Example 199] on UniProtKB P31749?
6.22

---

target: AKT1 E17K (Homo sapiens, UniProt P31749, E17K); assay: Live cell AKT1 E17K target engagement by NanoBRET competitive probe displacement; details: HEK293 cells transfected with kinase-NanoLuciferase fusion, 2 h at 37° C.
Measured endpoint: pIC50
Reminder that pIC50 means the negative base-10 logarithm of the concentration expressed in mol/L.

Example compounds with recorded pIC50:
{"Compound": "C=CC(=O)N1CCC(N[C@@H]2c3ccc(-n4c(-c5cccnc5N)nc5ccc(-n6cccn6)nc54)cc3CC2F)C(C)C1 (single isomer, unassigned) [Example 291]", "pIC50": 7.17}
{"Compound": "C=C(F)C(=O)N1CCc2c(C(=O)N[C@H]3CCc4cc(-n5c(-c6cccnc6N)nc6ccc(-n7cccn7)nc65)ccc43)cccc21", "pIC50": 6.61}
{"Compound": "C=CC(=O)N1CCC(N[C@@H]2c3ccc(-n4c(-c5cccnc5N)nc5ccc(-n6ccc(F)n6)nc54)cc3CC2F)C[C@@H]1C (single isomer, unassigned) [Example 273]", "pIC50": 7.94}
{"Compound": "C=CC(=O)N(C)CCCN[C@H]1CCc2cc(-n3c(-c4cccnc4N)nc4ccc(-n5cccn5)nc43)ccc21", "pIC50": 7.13}

GET /values?readout=pIC50&item= C=CC(=O)N1C[C@H]2COC[C@@H](C1)C2N[C@H]1CCc2cc(-n3c(-c4cccnc4N)nc4ccc(-n5cccn5)nc43)ccc21 (single isomer, unassigned) [Example 73]
7.72

---

target: AKT1 E17K (Homo sapiens, UniProt P31749, E17K); assay: Live cell AKT1 E17K target engagement by NanoBRET competitive probe displacement; conditions: HEK293 cells transfected with kinase-NanoLuciferase fusion, 2 h at 37° C.
Reported log10 IC50 by item:
Hi team, quick reminder: these entries are log10 of IC50 (nM).

Example compounds with recorded log10 IC50:
{"Compound": "C=CC(=O)N(C)c1ccccc1C(=O)N[C@H]1CCc2cc(-n3c(-c4cccnc4N)nc4ccc(-n5cccn5)nc43)ccc21 [Example 4]", "log10 IC50": 2.92}
{"Compound": "C=CC(=O)N1CCC(N[C@H]2CCc3cc(-n4c(-c5cccnc5N)nc5ccc(-n6cccn6)nc54)ccc32)C(OC)C1 (single isomer, unassigned) [Example 117]", "log10 IC50": 2.68}
{"Compound": "C=CC(=O)N1CC2(CCC(N[C@H]3CCc4cc(-n5c(-c6cccnc6N)nc6ccc(-n7cccn7)nc65)ccc43)C2)C1 (single isomer, unassigned) [Example 92]", "log10 IC50": 1.28}
{"Compound": "C=CC(=O)N1C[C@H]2C[C@@H]1CC2N[C@H]1CCc2cc(-n3c(-c4cccnc4N)nc4ccc(-n5cccn5)nc43)ccc21 (single isomer, unassigned) [Example 137]", "log10 IC50": 1.85}
{"Compound": "C=CC(=O)N1CCC(N[C@@H]2c3ccc(-n4c(-c5cccnc5N)nc5ccc(-c6ccn(C(F)F)n6)nc54)cc3CC2F)CC1 (stereo partly drawn) [Example 310]", "log10 IC50": 1.54}

GET /values?readout=log10 IC50&item= CC(C)(C)/C=C/C(=O)N1CCC(N[C@H]2CCc3cc(-n4c(-c5cccnc5N)nc5ccc(-n6cccn6)nc54)ccc32)CC1 [Example 95]
2.49

GET /values?readout=log10 IC50&item= C=CC(=O)N1CCOCC(N[C@H]2CCc3cc(-n4c(-c5cccnc5N)nc5ccc(-n6cccn6)nc54)ccc32)C1 (single isomer, unassigned) [Example 54]
1.77

GET /values?readout=log10 IC50&item= C=CC(=O)N1CC(N2CCC(N[C@H]3CCc4cc(-n5c(-c6cccnc6N)nc6ccc(-n7cccn7)nc65)ccc43)CC2)C1 [Example 158]
2.55

GET /values?readout=log10 IC50&item= C=C(F)C(=O)Nc1ccccc1C(=O)N[C@H]1CCc2cc(-n3c(-c4cccnc4N)nc4ccc(-n5cccn5)nc43)ccc21 [Example 5]
1.66

GET /values?readout=log10 IC50&item= C=CC(=O)N1CCC(N[C@H]2CCc3cc(-n4c(-c5cccnc5N)nc5ccc(C6CC6)nc54)ccc32)C(F)C1 (single isomer, unassigned) [Example 177]
1.57

GET /values?readout=log10 IC50&item= C#CC1CC(N[C@H]2CCc3cc(-n4c(-c5cccnc5N)nc5ccc(-n6cccn6)nc54)ccc32)CCN1C(=O)C=C (single isomer, unassigned) [Example 113]
0.95
